biological target: methionyl-tRNA synthetase (Trypanosoma brucei); test: inhibition of trypanosomal methionyl-tRNA synthetase – biochemical, fluorescence polarization, dose response, orthogonal assay for T. brucei MetRS inhibitor project, late-stage follow-up (AID 686969)
metric: IC50

Please review the following examples before continuing.
{"compound": "CN1CC(=O)N2C(c3cccc([N+](=O)[O-])c3)c3[nH]c4ccccc4c3C[C@H]2C1=O (some centres undefined)", "assay-target": "methionyl-tRNA synthetase (Trypanosoma brucei)", "IC50": "717 nM"}
{"compound": "CC(=O)c1c[nH]c(C(=O)NCc2cccc(C(F)(F)F)c2)c1", "assay-target": "methionyl-tRNA synthetase (Trypanosoma brucei)", "IC50": "2220 nM"}
{"compound": "CC(C)(C)[C@@H]1C=C(C(=O)NCc2nc3ccccc3[nH]2)O[C@H](OCc2ccc(CO)cc2)C1", "assay-target": "methionyl-tRNA synthetase (Trypanosoma brucei)", "IC50": "8120 nM"}

Return reported IC50 values for all items listed beneath this line.
1. O=C(Nc1ccc(F)c(Cl)c1)C1CC(=O)n2c(nc3ccccc32)N1 (centres undefined)
2. C[C@H](O)[C@@H]1C(=O)N2CCc3c([nH]c4ccccc34)[C@@H]2C[C@@H]1N(C)Cc1ccc2c(c1)OCO2

Output:
2910 nM
439 nM
